Cited source for all entries: ChEMBL document CHEMBL5104172

# Tested on: Staphylococcus epidermidis
# procedureText: Antibacterial activity against methicillin-sensitive Staphylococcus epidermidis MSSE17-1 measured by liquid dilution method
# Type: functional
Please respond with reported log10 of MIC for every item in the list.
Please interpret these as log10 of MIC where MIC is in µg/mL.

Query block: Form field: reported log10 of MIC of CNC1=NC(=O)[C@H]([C@H](C)c2c[nH]c3cccc(C)c23)O1
Result block: -0.90

Query block: Form field: reported log10 of MIC of CNC1=NC(=O)[C@H]([C@H](C)c2c[nH]c3cccc(Cl)c23)O1
Result block: -0.60

Query block: Form field: reported log10 of MIC of CNC1=NC(=O)[C@H]([C@H](C)c2c[nH]c3c(F)cccc23)O1
Result block: 0.30

Query block: Form field: reported log10 of MIC of CNC1=NC(=O)[C@H]([C@H](C)c2c[nH]c3cccc(F)c23)O1
Result block: -0.30

Query block: Form field: reported log10 of MIC of CNC1=NC(=O)[C@H]([C@H](C)c2c[nH]c3cccc(Br)c23)O1
Result block: 0.00

Query block: Form field: reported log10 of MIC of CNC1=NC(=O)[C@H]([C@H](C)c2c[nH]c3ccccc23)O1
Result block: -0.60

Query block: Form field: reported log10 of MIC of CNC1=NC(=O)[C@@H]([C@@H](C)c2c[nH]c3cccc(Br)c23)O1
Result block: 2.11

Query block: Form field: reported log10 of MIC of CNC1=NC(=O)[C@H]([C@H](C)c2c[nH]c3cc(F)ccc23)O1
Result block: 0.90

Query block: Form field: reported log10 of MIC of CNC1=NC(=O)[C@@H]([C@@H](C)c2c[nH]c3c(F)cccc23)O1
Result block: 1.51

###

# Tested on: Staphylococcus aureus
# procedureText: Antibacterial activity against methicillin-resistant Staphylococcus aureus NRS384 measured by liquid dilution method
# Type: functional
measuredParameter: MIC (µg/mL)
Respond numerically; units are µg/mL and should not be typed.

Query block: Find MIC (Staphylococcus aureus) for the entry CNC1=NC(=O)C(C(C)c2c[nH]c3ccc(Br)cc23)O1 (racemic)
Result block: 64

Query block: Find MIC (Staphylococcus aureus) for the entry CNC1=NC(=O)C(C(C)c2c[nH]c3cccc(O)c23)O1 (racemic)
Result block: 8

Query block: Find MIC (Staphylococcus aureus) for the entry CNC1=NC(=O)C(C(C)c2c[nH]c3cccc(F)c23)O1 (racemic)
Result block: 1

Query block: Find MIC (Staphylococcus aureus) for the entry CNC1=NC(=O)C(C(C)c2c[nH]c3c(F)cccc23)O1 (racemic)
Result block: 8

###

# procedureText: Stability in CD-1 mouse whole blood assessed as compound remaining at 2 uM and measured at 30 mins LC-MS/MS analysis
# Format: ADME, tissue-based
# measurementParameters: read-out: Stability
measuredParameter: remaining at 0.5 h, 2 µM (%)
Respond numerically; units are % and should not be typed.

Query block: Form field: reported remaining at 0.5 h, 2 µM of CC(C)[N+](C)(CCOC(=O)C1c2ccccc2Oc2ccccc21)C(C)C [PROPANTHELINE BROMIDE]
Result block: 82.9

###

# Tested on: Enterococcus faecium
# procedureText: Antibacterial activity against Enterococcus faecium EFM17-2 measured by liquid dilution method
# Assay type: functional
measuredParameter: MIC

Query block: Form field: reported MIC of CNC1=NC(=O)[C@@H]([C@@H](C)c2c[nH]c3cc(F)ccc23)O1
Result block: > 128 µg/mL

Query block: Form field: reported MIC of CNC1=NC(=O)[C@@H]([C@@H](C)c2c[nH]c3ccccc23)O1
Result block: > 128 µg/mL

Query block: Form field: reported MIC of CNC1=NC(=O)[C@H]([C@H](C)c2c[nH]c3cc(F)ccc23)O1
Result block: > 128 µg/mL

Query block: Form field: reported MIC of CNC1=NC(=O)[C@H]([C@H](C)c2c[nH]c3c(F)cccc23)O1
Result block: 4 µg/mL

Query block: Form field: reported MIC of CNC1=NC(=O)[C@H]([C@H](C)c2c[nH]c3cccc(Cl)c23)O1
Result block: > 128 µg/mL

###

# System: Staphylococcus aureus
# procedureText: Antibacterial activity against methicillin-sensitive Staphylococcus aureus MSSA17-2 measured by liquid dilution method
# Format: functional
Please respond with reported MIC for every item in the list.

Query block: Form field: reported MIC of CNC1=NC(=O)[C@@H]([C@@H](C)c2c[nH]c3cccc(F)c23)O1
Result block: > 128 µg/mL

Query block: Form field: reported MIC of CNC1=NC(=O)[C@@H]([C@@H](C)c2c[nH]c3cccc(C)c23)O1
Result block: > 128 µg/mL

Query block: Form field: reported MIC of CNC1=NC(=O)[C@@H]([C@@H](C)c2c[nH]c3ccccc23)O1
Result block: > 128 µg/mL

Query block: Form field: reported MIC of CNC1=NC(=O)[C@@H]([C@@H](C)c2c[nH]c3cc(F)ccc23)O1
Result block: > 128 µg/mL

###

Please respond with reported MIC for every item in the list.
# Test system: Staphylococcus aureus
# procedureText: Antibacterial activity against methicillin-resistant Staphylococcus aureus NRS384 measured by liquid dilution method
# Assay type: functional

Query block: Form field: reported MIC of CNC1=NC(=O)C(C(C)c2c[nH]c3cccc(C)c23)S1 (racemic)
Result block: > 128 µg/mL

Query block: Form field: reported MIC of CNC1=NC(=O)C(C(C)c2c[nH]c3cccc(Br)c23)O1 (racemic)
Result block: > 128 µg/mL

Query block: Form field: reported MIC of CNC1=NC(=O)C(C(C)c2c[nH]c3cc(Br)ccc23)O1 (racemic)
Result block: 16 µg/mL

Query block: Form field: reported MIC of CNC1=NC(=O)C(C(C)c2c[nH]c3cccc(N4CCCCC4)c23)O1 (racemic)
Result block: > 128 µg/mL

Query block: Form field: reported MIC of CNC1=NC(=O)C(C(C)c2c[nH]c3ccc(F)cc23)O1 (racemic)
Result block: 64 µg/mL

Query block: Form field: reported MIC of CCN(CC)c1cccc2[nH]cc(C(C)C3OC(NC)=NC3=O)c12 (racemic)
Result block: > 128 µg/mL

Query block: Form field: reported MIC of CNC1=NC(=O)C(C(C)c2c[nH]c3cccc(Br)c23)S1 (racemic)
Result block: > 128 µg/mL

Query block: Form field: reported MIC of CNC1=NC(=O)C(C(C)c2c[nH]c3c(C)cccc23)O1 (racemic)
Result block: > 128 µg/mL

Query block: Form field: reported MIC of CNC1=NC(=O)C(C(C)c2c[nH]c3cccc(N4CCCC4)c23)O1 (racemic)
Result block: > 128 µg/mL

Query block: Form field: reported MIC of CNC1=NC(=O)C(C(C)c2c[nH]c3cc(F)ccc23)O1 (racemic)
Result block: 8 µg/mL

Query block: Form field: reported MIC of CNC1=NC(=O)C(C(C)c2c[nH]c3cccc(Cl)c23)O1 (racemic)
Result block: 2 µg/mL

Query block: Form field: reported MIC of CC(c1c[nH]c2cccc(F)c12)C1OC(N)=NC1=O (racemic)
Result block: > 128 µg/mL

###

# Test system: Staphylococcus aureus
# procedureText: Antibacterial activity against methicillin-resistant Staphylococcus aureus MRSA17-2 measured by liquid dilution method
# Type: functional
measuredParameter: MIC (µg/mL)
Respond numerically; units are µg/mL and should not be typed.

Query block: Find MIC (Staphylococcus aureus) for the entry CNC1=NC(=O)[C@H]([C@H](C)c2c[nH]c3cccc(Cl)c23)O1
Result block: 1

Query block: Find MIC (Staphylococcus aureus) for the entry CNC1=NC(=O)[C@H]([C@H](C)c2c[nH]c3cccc(C)c23)O1
Result block: 0.5

Query block: Find MIC (Staphylococcus aureus) for the entry CNC1=NC(=O)[C@H]([C@H](C)c2c[nH]c3c(F)cccc23)O1
Result block: 0.5

Query block: Find MIC (Staphylococcus aureus) for the entry CNC1=NC(=O)[C@H]([C@H](C)c2c[nH]c3cccc(F)c23)O1
Result block: 1

Query block: Find MIC (Staphylococcus aureus) for the entry CNC1=NC(=O)[C@H]([C@H](C)c2c[nH]c3cc(F)ccc23)O1
Result block: 8

###

# System: Staphylococcus epidermidis
# procedureText: Antibacterial activity against methicillin-sensitive Staphylococcus epidermidis MSSE17-1 measured by liquid dilution method
# Format: functional
measuredParameter: MIC

Query block: Find MIC (Staphylococcus epidermidis) for the entry CNC1=NC(=O)[C@@H]([C@@H](C)c2c[nH]c3cccc(F)c23)O1
Result block: > 128 mg/L

Query block: Find MIC (Staphylococcus epidermidis) for the entry CNC1=NC(=O)[C@@H]([C@@H](C)c2c[nH]c3ccccc23)O1
Result block: > 128 mg/L

Query block: Find MIC (Staphylococcus epidermidis) for the entry CNC1=NC(=O)[C@@H]([C@@H](C)c2c[nH]c3cccc(Cl)c23)O1
Result block: > 128 mg/L

Query block: Find MIC (Staphylococcus epidermidis) for the entry CNC1=NC(=O)[C@@H]([C@@H](C)c2c[nH]c3cccc(C)c23)O1
Result block: > 128 mg/L

Query block: Find MIC (Staphylococcus epidermidis) for the entry CNC1=NC(=O)[C@@H]([C@@H](C)c2c[nH]c3cc(F)ccc23)O1
Result block: > 128 mg/L
